This document collects IC50 values reported for Receptor-type tyrosine-protein phosphatase C (Homo sapiens).

Endpoint output: IC50 of O=C(c1ccccc1)C(Cc1ccc(C(F)(F)P(=O)(O)O)c(Br)c1)c1ccccc1 (configuration not stated) . Value? > 50 µM

With those in mind, consider the next compound.
Endpoint output: IC50 of O=C(c1ccccc1)C(Cc1ccc(C(F)(F)P(=O)(O)O)c(Cl)c1)c1ccccc1 (configuration not stated) . Value? > 50 µM

---

# experimentalSystem: Tyrosine-protein phosphatase non-receptor type 1 (Homo sapiens)
# Sequence (P18031 whole entry): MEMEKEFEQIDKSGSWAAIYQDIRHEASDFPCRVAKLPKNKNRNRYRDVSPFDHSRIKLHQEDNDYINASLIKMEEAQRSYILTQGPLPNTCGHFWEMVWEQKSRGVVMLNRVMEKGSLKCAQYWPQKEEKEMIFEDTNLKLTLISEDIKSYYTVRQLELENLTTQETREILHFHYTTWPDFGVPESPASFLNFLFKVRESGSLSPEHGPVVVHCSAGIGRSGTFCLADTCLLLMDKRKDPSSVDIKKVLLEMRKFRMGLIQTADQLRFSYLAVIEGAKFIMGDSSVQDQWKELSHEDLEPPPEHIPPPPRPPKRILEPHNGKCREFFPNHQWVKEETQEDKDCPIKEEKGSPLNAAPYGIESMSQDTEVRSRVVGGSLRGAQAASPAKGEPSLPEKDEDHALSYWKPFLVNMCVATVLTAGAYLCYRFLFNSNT
# testSummary: Inhibition of PTP1B (1 to 321 residues) (unknown origin) expressed in Escherichia coli BL21 assessed as inhibition constant using pNPP as substrate incubated for 2 to 3 min by spectrophotometry analysis
valueType: Ki (nM)
// units = nM; emit number, no label

Endpoint output: Ki of `CCCCCCCCCCCCCCC(=O)N[C@@H](Cc1ccc(C(F)(F)P(=O)(O)O)cc1)C(=O)N[C@@H](CC(=O)O)C(=O)N[C@@H](Cc1ccc(C(F)(F)P(=O)(O)O)cc1)C(N)=O` . Value? 25

These entries and their values trace back to ChEMBL document CHEMBL5244260.
